This listing pairs compounds with measured pIC50.
System: Kappas-299 cells containing NPM-ALK fusion protein
Assay: 4-day cell viability assay (CellTiter-Glo), Kappas-299
Type: cell-based
Conditions: NPM-ALK, 96 h, inhibition of cell growth, 4 days, multiple values from independent experiments
Formally, pIC50 is defined as -log10 of the concentration c, with c in mol/L.

CCc1cc2c(=O)c3c4ccc(C#N)cc4[nH]c3n(C(C)C)c2cc1C1CCN(CCO)CC1 [CJ-2241]    6.53
COc1cc2c(=O)c3c4ccc(C#N)cc4[nH]c3n(C3CCC3)c2c(F)c1N1CCC(N2CCOCC2)CC1 [ALK-74]    7.01
C#Cc1cc2c(=O)c3c4ccc(C#N)cc4[nH]c3n(C(C)C)c2cc1N1CCN(C)CC1 [ALK-71]    7.51

Can you look up the measured pIC50 of CCC(CC)n1c2cc(N3CCN(C)CC3)c(OC)cc2c(=O)c2c3ccc(C#N)cc3[nH]c21 [ALK-40] for me? 6.38

----------
This listing pairs molecules with measured AUC(0-t).
Assay: Pharmacokinetic parameters in SD rats, IV and PO
Set-up: concentration or dose not given beside the values
Conditions: Sprague-Dawley (SD), rat, in vivo, intravenous, read-out: AUC0-t IV
Please reply with the bare figure in ng·h/mL and do not write the unit itself.

Use these answered entries as a reference point.
CC(C)Oc1cc2c(=O)c3c4ccc(C#N)cc4[nH]c3n(C(C)C)c2c(F)c1N1CCN(C)CC1 [ALK-86]    1080
COc1cc2c(=O)c3c4ccc(C#N)cc4[nH]c3n(C(C)C)c2c(F)c1C1CCN(C2COC2)CC1 [CJ-2224]    2340
COc1cc2c(=O)c3c4ccc(C#N)cc4[nH]c3n(C(C)C)c2c(F)c1C1CCN(C)CC1 [CJ-2212]    574
COc1cc2c(=O)c3c4ccc(C#N)cc4[nH]c3n(C(C)C)c2c(F)c1C1CCN(C2CCOCC2)CC1 [CJ-2226]    1000
COc1cc2c(=O)c3c4ccc(C#N)cc4[nH]c3n(C(C)C)c2c(F)c1C1CCN(C(C)C)CC1 [CJ-2225]    1110

Note: attention shifts to another entry.
Can you look up the measured AUC(0-t) of CCOc1cc2c(=O)c3c4ccc(C#N)cc4[nH]c3n(C(C)C)c2c(F)c1N1CCN(C)CC1 [ALK-83] for me? 1100

----------
This listing pairs compounds with measured pIC50.
Biological target: ALK mutant (S1206Y) (Homo sapiens, UniProt Q9UM73, S1206Y)
Sequence (Q9UM73 19-1620 S1206Y): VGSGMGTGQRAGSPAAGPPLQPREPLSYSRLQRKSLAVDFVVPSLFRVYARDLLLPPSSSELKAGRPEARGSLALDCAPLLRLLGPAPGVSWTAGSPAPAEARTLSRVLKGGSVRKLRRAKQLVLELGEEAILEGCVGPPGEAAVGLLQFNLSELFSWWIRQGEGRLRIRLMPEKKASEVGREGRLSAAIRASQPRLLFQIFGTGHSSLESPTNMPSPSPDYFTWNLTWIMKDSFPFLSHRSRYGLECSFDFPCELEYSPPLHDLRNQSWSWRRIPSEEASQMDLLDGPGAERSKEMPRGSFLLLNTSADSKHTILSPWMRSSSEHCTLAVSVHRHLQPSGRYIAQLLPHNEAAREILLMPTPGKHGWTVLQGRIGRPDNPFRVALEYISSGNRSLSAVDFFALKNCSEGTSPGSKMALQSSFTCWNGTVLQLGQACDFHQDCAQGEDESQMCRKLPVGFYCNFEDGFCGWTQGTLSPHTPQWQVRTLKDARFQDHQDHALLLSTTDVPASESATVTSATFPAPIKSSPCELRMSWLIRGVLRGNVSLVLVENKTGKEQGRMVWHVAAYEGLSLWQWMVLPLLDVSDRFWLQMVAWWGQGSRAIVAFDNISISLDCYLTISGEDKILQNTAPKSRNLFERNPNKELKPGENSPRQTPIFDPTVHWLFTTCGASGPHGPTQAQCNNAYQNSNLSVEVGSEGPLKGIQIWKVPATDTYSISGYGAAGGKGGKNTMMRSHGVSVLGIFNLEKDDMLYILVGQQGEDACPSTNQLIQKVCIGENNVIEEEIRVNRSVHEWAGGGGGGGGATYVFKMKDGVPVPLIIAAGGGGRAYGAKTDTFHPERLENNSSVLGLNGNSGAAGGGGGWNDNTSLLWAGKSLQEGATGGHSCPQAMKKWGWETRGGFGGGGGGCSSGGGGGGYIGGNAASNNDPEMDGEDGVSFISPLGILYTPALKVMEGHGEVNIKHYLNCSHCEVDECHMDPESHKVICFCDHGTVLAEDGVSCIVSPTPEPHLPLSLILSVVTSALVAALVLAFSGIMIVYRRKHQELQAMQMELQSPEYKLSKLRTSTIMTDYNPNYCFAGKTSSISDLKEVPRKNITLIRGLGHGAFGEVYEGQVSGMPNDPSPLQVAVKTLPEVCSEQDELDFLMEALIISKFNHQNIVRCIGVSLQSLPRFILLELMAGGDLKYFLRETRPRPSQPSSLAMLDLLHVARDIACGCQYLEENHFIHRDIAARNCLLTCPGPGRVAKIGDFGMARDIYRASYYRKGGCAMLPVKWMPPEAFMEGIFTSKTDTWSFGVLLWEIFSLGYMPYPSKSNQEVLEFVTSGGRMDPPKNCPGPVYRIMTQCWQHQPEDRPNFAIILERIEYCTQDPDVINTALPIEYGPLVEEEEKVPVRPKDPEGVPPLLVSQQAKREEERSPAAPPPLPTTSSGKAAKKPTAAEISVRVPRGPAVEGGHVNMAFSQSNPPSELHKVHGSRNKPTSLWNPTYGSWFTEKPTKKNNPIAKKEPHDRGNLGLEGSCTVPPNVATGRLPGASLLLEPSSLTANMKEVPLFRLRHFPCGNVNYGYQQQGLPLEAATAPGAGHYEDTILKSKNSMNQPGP
Assay: biochemical
Formally, pIC50 is defined as -log10 of the concentration c, with c in mol/L.

C#Cc1cc2c(=O)c3c4ccc(C#N)cc4[nH]c3n(C3CCC3)c2cc1N1CCN(C)CC1 [ALK-72]    8.55

Can you look up the measured pIC50 of C#Cc1cc2c(=O)c3c4ccc(C#N)cc4[nH]c3n(C(C)C)c2cc1N1CCN(C)CC1 [ALK-71] for me? 8.89

----------
Assay: Pharmacokinetic parameters in SD rats, IV and PO
Conditions: Sprague-Dawley (SD), rat, in vivo, intravenous, read-out: Tmax IV
MEASUREMENT_LABEL: Tmax
The reply must contain the numeric value and, after it, the unit.

Use these answered entries as a reference point.
CC(C)Oc1cc2c(=O)c3c4ccc(C#N)cc4[nH]c3n(C(C)C)c2c(F)c1N1CCN(C)CC1    4.98 min
CCOc1cc2c(=O)c3c4ccc(C#N)cc4[nH]c3n(C(C)C)c2c(F)c1N1CCN(C)CC1    4.98 min
COc1cc2c(=O)c3c4ccc(C#N)cc4[nH]c3n(C(C)C)c2c(F)c1C1CCN(C2COC2)CC1    4.98 min
COc1cc2c(=O)c3c4ccc(C#N)cc4[nH]c3n(C(C)C)c2c(F)c1C1CCN(C)CC1    4.98 min
COc1cc2c(=O)c3c4ccc(C#N)cc4[nH]c3n(C(C)C)c2c(F)c1C1CCN(C2CCOCC2)CC1    4.98 min

Note: attention shifts to another entry.
Can you look up the measured Tmax of `COc1cc2c(=O)c3c4ccc(C#N)cc4[nH]c3n(C(C)C)c2c(F)c1C1CCN(C(C)C)CC1` for me? 13.3 min

----------
Experiment: Pharmacokinetic parameters in SD rats, IV and PO
Conditions: Sprague-Dawley (SD), rat, in vivo, po, read-out: Oral Bioavailability (F)
Classify by measured bioavailability: Satisfied if it is equal to or exceeds 70%, Not satisfied if it is smaller.

Reference set, count: 4
CC(C)Oc1cc2c(=O)c3c4ccc(C#N)cc4[nH]c3n(C(C)C)c2c(F)c1N1CCN(C)CC1    Not satisfied
COc1cc2c(=O)c3c4ccc(C#N)cc4[nH]c3n(C(C)C)c2c(F)c1C1CCN(C2CCOCC2)CC1    Not satisfied
COc1cc2c(=O)c3c4ccc(C#N)cc4[nH]c3n(C(C)C)c2c(F)c1C1CCN(C2COC2)CC1    Satisfied
CCOc1cc2c(=O)c3c4ccc(C#N)cc4[nH]c3n(C(C)C)c2c(F)c1N1CCN(C)CC1    Satisfied

Now for a further compound.
Decide: bioavailability of `COc1cc2c(=O)c3c4ccc(C#N)cc4[nH]c3n(C(C)C)c2c(F)c1C1CCN(C(C)C)CC1` >= 70%? Not satisfied

----------
Test: Pharmacokinetic parameters in SD rats, IV and PO
Details: Sprague-Dawley (SD), rat, in vivo, oral, read-out: Tmax PO
MEASUREMENT_LABEL: Tmax
The reply must contain the numeric value and, after it, the unit.

CC(C)Oc1cc2c(=O)c3c4ccc(C#N)cc4[nH]c3n(C(C)C)c2c(F)c1N1CCN(C)CC1    4 h
COc1cc2c(=O)c3c4ccc(C#N)cc4[nH]c3n(C(C)C)c2c(F)c1C1CCN(C2CCOCC2)CC1    4.67 h
CCOc1cc2c(=O)c3c4ccc(C#N)cc4[nH]c3n(C(C)C)c2c(F)c1N1CCN(C)CC1    4 h

Can you look up the measured Tmax of `COc1cc2c(=O)c3c4ccc(C#N)cc4[nH]c3n(C(C)C)c2c(F)c1C1CCN(C2COC2)CC1` for me? 0.67 h

Can you look up the measured Tmax of `COc1cc2c(=O)c3c4ccc(C#N)cc4[nH]c3n(C(C)C)c2c(F)c1C1CCN(C)CC1` for me? 5.33 h

Can you look up the measured Tmax of `COc1cc2c(=O)c3c4ccc(C#N)cc4[nH]c3n(C(C)C)c2c(F)c1C1CCN(C(C)C)CC1` for me? 5.33 h

----------
Biological target: wild-type human ALK protein (cytoplasmic domain, amino acid 1058-1620, GST-fusion) (Homo sapiens)
Experiment: biochemical
Details: IC50 ALK Wild-type, Table 2; wild-type ALK; 100 μM ATP
This listing pairs compounds with measured pIC50.
Formally, pIC50 is defined as -log10 of the concentration c, with c in mol/L.

C#Cc1cc2c(=O)c3c4ccc(C#N)cc4[nH]c3n(C3CCC3)c2cc1N1CCN(C)CC1    9.17

Note: attention shifts to another entry.
Can you look up the measured pIC50 of `C#Cc1cc2c(=O)c3c4ccc(C#N)cc4[nH]c3n(C(C)C)c2cc1N1CCN(C)CC1` for me? 9.51

----------
This listing pairs compounds with measured pIC50.
Target: wild-type human ALK protein (cytoplasmic domain, amino acid 1058-1620, GST-fusion) (Homo sapiens, UniProt Q9UM73)
Sequence (Q9UM73 1058-1620): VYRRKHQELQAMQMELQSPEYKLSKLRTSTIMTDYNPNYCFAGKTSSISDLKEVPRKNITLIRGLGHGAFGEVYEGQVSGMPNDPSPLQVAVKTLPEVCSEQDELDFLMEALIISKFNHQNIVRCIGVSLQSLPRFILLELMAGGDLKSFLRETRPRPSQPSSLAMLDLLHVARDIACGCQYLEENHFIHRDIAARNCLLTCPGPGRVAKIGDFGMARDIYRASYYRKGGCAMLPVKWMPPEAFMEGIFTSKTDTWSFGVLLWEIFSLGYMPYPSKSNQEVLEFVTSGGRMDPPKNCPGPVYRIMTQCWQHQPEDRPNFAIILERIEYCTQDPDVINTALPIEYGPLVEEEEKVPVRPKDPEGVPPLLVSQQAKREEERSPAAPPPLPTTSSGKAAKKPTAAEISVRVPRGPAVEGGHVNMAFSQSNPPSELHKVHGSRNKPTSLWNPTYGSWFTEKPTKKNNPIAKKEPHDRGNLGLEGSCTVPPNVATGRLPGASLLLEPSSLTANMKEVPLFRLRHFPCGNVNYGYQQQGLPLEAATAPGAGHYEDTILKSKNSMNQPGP
Assay: biochemical
Conditions: ALK IC50, wild-type ALK; 100 μM ATP
Formally, pIC50 is defined as -log10 of the concentration c, with c in mol/L.

CCc1cc2c(=O)c3c4ccc(C#N)cc4[nH]c3n(C(C)C)c2cc1N1CCN(C2COC2)CC1    8.96

Can you look up the measured pIC50 of `COc1cc2c(=O)c3c4ccc(C#N)cc4[nH]c3n(C)c2cc1N1CCC(N2CCOCC2)CC1` for me? 6.18

Can you look up the measured pIC50 of `COc1cc2c(=O)c3c4ccc(C#N)cc4[nH]c3n(CC(C)(C)C)c2cc1N1CCN(C)CC1` for me? 7.55

Can you look up the measured pIC50 of `CCC(CC)n1c2cc(N3CCN(C)CC3)c(OC)cc2c(=O)c2c3ccc(C#N)cc3[nH]c21` for me? 7.53

Can you look up the measured pIC50 of `CCc1cc2c(=O)c3c4ccc(C#N)cc4[nH]c3n(C(C)C)c2cc1N1CCN(C(C)C)CC1` for me? 9.66

Can you look up the measured pIC50 of `CCc1cc2c(=O)c3c4ccc(C#N)cc4[nH]c3n(C(C)C)c2cc1N1CCC(N2CCOCC2)CC1` for me? 9.15

Can you look up the measured pIC50 of `CCc1cc2c(=O)c3c4ccc(C#N)cc4[nH]c3n(C(C)C)c2cc1C1CCN(C)CC1` for me? 9.28

Can you look up the measured pIC50 of `CCc1cc2c(=O)c3c4ccc(C#N)cc4[nH]c3n(C(C)C)c2cc1N1CCC(N2CCN(C)CC2)CC1` for me? 9.96

Can you look up the measured pIC50 of `CCc1cc2c(=O)c3c4ccc(C#N)cc4[nH]c3n(C3CCCC3)c2cc1N1CCN(C)CC1` for me? 7.82

Can you look up the measured pIC50 of `CCc1cc2c(=O)c3c4ccc(C#N)cc4[nH]c3n(C(C)C)c2cc1N1CCNCC1` for me? 10.00

Can you look up the measured pIC50 of `COc1cc2c(=O)c3c4ccc(C#N)cc4[nH]c3n(C3CCC3)c2c(F)c1N1CCN(C)CC1` for me? 8.44

Can you look up the measured pIC50 of `CCc1cc2c(=O)c3c4ccc(C#N)cc4[nH]c3n(C(C)C)c2cc1C1CCNCC1` for me? 9.59

Can you look up the measured pIC50 of `CCc1cc2c(=O)c3c4ccc(C#N)cc4[nH]c3n(C(C)C)c2cc1C1CCN(C2CCOCC2)CC1` for me? 9.11
